method_summary: in vitro
Assay type: cell-based
assay_context: African green monkey, Vero E6, pre-infection phase setting; read-out: CC50
property: CC50 at 48 h

Task: I'd like to know its CC50 at 48 h. The compound in question is CCN(CCO)CCCC(C)Nc1ccnc2cc(Cl)ccc12 (stereo not shown) [Hydroxychloroquine, reference compound]
Output: > 100 µM

----------
# %Inhibition at 10 µM per entry
Test system: SARS-CoV-2
method_summary: microbe, parasite or virus in culture
Assay type: cell-based
assay_context: purified compounds, single dose 10 µM, Vero E6, SARS-CoV-2 25TCID50
Numeric only. Scale: %

Worked set:
{"columns": ["compound", "%Inhibition at 10 µM [%]"],
 "data": [
  ["CCCCCCCCC/C=C/C(=O)CCc1ccc(O)c(OC)c1 [MUC1775, 10-Shogaol]", 5.7],
  ["CCCCCCC[C@H](O)CC(=O)CCc1ccc(O)c(OC)c1 [ECDD-DPM-N95, 8-Gingerol]", 17.59],
  ["CCCCC/C=C/C(=O)CCc1ccc(O)c(OC)c1 [ECDD-DPM-N97, 6-Shogaol]", 12.17]
]}

Task: Returns the measured %Inhibition at 10 µM for the input compound. Input: CCCCCCCCC[C@H](O)CC(=O)CCc1ccc(O)c(OC)c1 [ECDD-DPM-N96, 10-Gingerol]
Output: 23.51

Task: Same again, this time with COc1c(O)cc2oc3cc(O)c(CC=C(C)C)c(O)c3c(=O)c2c1CC=C(C)C [ECDD-NAM, alpha-mangostin]
Output: 9.08

Recorded values, source paper PMC7672115.
